molecular target: human recombinant HDAC1 (Homo sapiens, UniProt Q13547); assay: HDAC1 inhibition, fluorometric method (Enzo Fluorometric Drug Discovery Assay Kit); conditions: read-out: Inhibitory activity IC50 on HDAC1
Sequence (Q13547 whole entry): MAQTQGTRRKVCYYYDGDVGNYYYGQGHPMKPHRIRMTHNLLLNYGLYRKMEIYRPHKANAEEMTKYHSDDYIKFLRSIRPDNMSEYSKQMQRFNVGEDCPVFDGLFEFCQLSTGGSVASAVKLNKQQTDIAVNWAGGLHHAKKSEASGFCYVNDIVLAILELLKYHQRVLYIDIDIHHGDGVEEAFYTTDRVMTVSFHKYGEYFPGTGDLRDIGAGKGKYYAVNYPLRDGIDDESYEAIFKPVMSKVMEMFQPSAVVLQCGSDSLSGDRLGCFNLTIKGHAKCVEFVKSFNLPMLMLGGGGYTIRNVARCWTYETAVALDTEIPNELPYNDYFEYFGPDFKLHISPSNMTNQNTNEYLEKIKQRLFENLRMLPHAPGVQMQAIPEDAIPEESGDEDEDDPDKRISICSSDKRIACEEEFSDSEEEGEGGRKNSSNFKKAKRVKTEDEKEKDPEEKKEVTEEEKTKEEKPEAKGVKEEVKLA
# note: exactly 8 µM is not below, so it is not fulfilled; use fulfilled for IC50 strictly under it

- compound: "CN(C)c1nc2c(Br)c(Br)c(Br)c(Br)c2n1Cc1cn(CCCCC(=O)NO)nn1"
  assigned.label: "fulfilled"
- compound: "CN(C)c1nc2c(Br)c(Br)c(Br)c(Br)c2n1CCCCCCC(=O)NO [Compound 11c]"
  assigned.label: "fulfilled"

Would you kindly look at the next entry?
Field: below-cutoff. Rule: recorded IC50 strictly less than 8 µM. Subject: CN(C)c1nc2c(Br)c(Br)c(Br)c(Br)c2n1CCc1cn(CCCC(=O)NO)nn1
not fulfilled
